# MEASURED ON: LasB (Pseudomonas aeruginosa, UniProt Q02RJ6)
# Sequence (Q02RJ6 198-498): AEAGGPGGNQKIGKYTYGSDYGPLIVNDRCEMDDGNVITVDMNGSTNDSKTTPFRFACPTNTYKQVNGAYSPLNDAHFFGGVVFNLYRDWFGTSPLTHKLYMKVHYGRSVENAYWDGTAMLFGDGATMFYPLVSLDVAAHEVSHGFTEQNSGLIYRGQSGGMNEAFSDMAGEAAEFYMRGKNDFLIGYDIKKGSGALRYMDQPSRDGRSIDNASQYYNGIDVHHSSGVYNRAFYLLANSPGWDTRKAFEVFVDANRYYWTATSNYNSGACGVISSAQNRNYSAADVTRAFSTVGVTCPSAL
# ASSAY OVERVIEW: biochemical
# Design: species or system P. aeruginosa
# EXPERIMENTAL PARAMETERS: IC50 against LasB
pIC50: −log10 of the molar value.

| COMPOUND | pIC50 |
| --- | --- |
| CC(C)C[C@@H](C(=O)N[C@@H](Cc1cccnc1)C(=O)Nc1ccc(Cl)c(Cl)c1)P(=O)(O)O | 5.82 |
| COc1ccc(NC(=O)C(C)S)cc1 (stereo not shown) | 4.35 |
| CC(C)CC(C(=O)Nc1cnc(Br)nc1)P(=O)(O)O (stereo not shown) | 6.42 |
| Cc1ccc(NC(=O)C(S)CC(C)C)cc1 (stereo not shown) | 6.40 |
| O=C(Nc1ccccc1)C(S)Cc1ccccc1 (single isomer, unassigned) [Example 1 E2, 2-Mercapto-N,3-diphenylpropanamide] | 6.00 |
| CC(C)C[C@H](C(=O)N[C@@H](Cc1ccccn1)C(=O)Nc1ccc(Cl)c(Cl)c1)P(=O)(O)O | 6.38 |
| CC(C)CC(C(=O)Nc1ccc(C#N)cc1)P(=O)(O)O (stereo not shown) | 7.60 |
| CCCCC(S)C(=O)Nc1ccc(Cl)c(Cl)c1 (stereo not shown) | 5.17 |
| CC(C)CC(C(=O)N1CCC[C@H]1C(=O)Nc1ccc(Cl)c(Cl)c1)P(=O)(O)O (stereo partly shown) | 5.60 |
| CC[C@H](C)[C@H](NC(=O)C(CC(C)C)P(=O)(O)O)C(=O)Nc1ccc(Cl)c(Cl)c1 (stereo partly shown) | 7.89 |

* * *

# MEASURED ON: LasB (Pseudomonas aeruginosa, UniProt Q02RJ6)
# ASSAY OVERVIEW: biochemical
# Set-up: species or system P. aeruginosa
# EXPERIMENTAL PARAMETERS: IC50 against LasB
Mark y only when IC50 stays strictly below 2000 nM. Values equal to the cut-off are n.

| COMPOUND | MEASURED ON | DISCRETE LABEL |
| --- | --- | --- |
| CCCC(S)C(=O)Nc1ccc(OC)cc1 (stereo not drawn) [Example 27] | LasB (Pseudomonas aeruginosa, UniProt Q02RJ6) | n |
| CC(C)CC(C(=O)Nc1ccc(NC(=O)c2ccc(Cl)c(Cl)c2)cc1)P(=O)(O)O (stereo not drawn) [Example 137] | LasB (Pseudomonas aeruginosa, UniProt Q02RJ6) | y |
| Cc1ccc(NC(=O)C(CC(C)C)P(=O)(O)O)cc1 (stereo not drawn) [Example 63] | LasB (Pseudomonas aeruginosa, UniProt Q02RJ6) | y |
| CC(C)CC(C(=O)Nc1ccc(NC(=O)C(Cc2ccccc2)c2ccccc2)cc1)P(=O)(O)O (stereo not drawn) [Example 120] | LasB (Pseudomonas aeruginosa, UniProt Q02RJ6) | y |
| CC(C)CC(C(=O)Nc1ccc(Cl)nn1)P(=O)(O)O (stereo not drawn) [Example 88] | LasB (Pseudomonas aeruginosa, UniProt Q02RJ6) | n |
